Tested on: Enterococcus faecium 800
Assay: MIC by broth microdilution, EFcm 800
Assay type: cell-based
Details: Enterococcus faecium, 800, read-out: MIC E FCM 800
MEASURED PARAMETER: MIC

Can you share its MIC? I mean this compound: CCCCOc1ccc(CCNC(=O)Oc2cc(O)c3c(c2)[C@@H](C(=O)NC2C4CC5CC(C4)CC2C5)NC(=O)[C@H]2NC(=O)[C@H](NC(=O)[C@@H]4NC(=O)[C@H](CC(N)=O)NC(=O)[C@H](NC(=O)[C@@H](CC(C)C)NC)[C@H](O)c5ccc(c(Cl)c5)Oc5cc4cc(c5O[C@@H]4O[C@H](CO)[C@@H](O)[C@H](O)[C@H]4O[C@H]4C[C@](C)(N)[C@H](O)[C@H](C)O4)Oc4ccc(cc4Cl)[C@H]2O)c2ccc(O)c-3c2)cc1 (stereo partly shown)
0.01 to 0.5 µg/mL

* * *

Tested on: Staphylococcus epidermidis 831 (MRSE)
Assay: MIC by broth microdilution, SE 831
Type: cell-based
Settings: Staphylococcus epidermidis, MRSE, read-out: MIC SE 831
MEASURED PARAMETER: MIC

Worked set:
COMPOUND | RESULT
CCCCCCCOc1ccc(S(=O)(=O)NCCCCCCNC(=O)Oc2cc(O)c3c(c2)[C@@H](C(=O)O)NC(=O)[C@H]2NC(=O)[C@H](NC(=O)[C@@H]4NC(=O)[C@H](CC(N)=O)NC(=O)[C@H](NC(=O)[C@@H](CC(C)C)NC)[C@H](O)c5ccc(c(Cl)c5)Oc5cc4cc(c5O[C@@H]4O[C@H](CO)[C@@H](O)[C@H](O)[C@H]4O[C@H]4C[C@](C)(N)[C@H](O)[C@H](C)O4)Oc4ccc(cc4Cl)[C@H]2O)c2ccc(O)c-3c2)cc1 (atropisomer, axis not shown) | 0.01 to 0.5 µg/mL
CCCCCCCCNC(=O)Oc1cc(O)c2c(c1)[C@@H](C(=O)NC1C3CC4CC(C3)CC1C4)NC(=O)[C@H]1NC(=O)[C@H](NC(=O)[C@@H]3NC(=O)[C@H](CC(N)=O)NC(=O)[C@H](NC(=O)[C@@H](CC(C)C)NC)[C@H](O)c4ccc(c(Cl)c4)Oc4cc3cc(c4OC3OC(CO)C(O)C(O)C3OC3CC(C)(N)C(O)C(C)O3)Oc3ccc(cc3Cl)[C@H]1O)c1ccc(O)c-2c1 (stereo partly drawn) | 0.01 to 0.5 µg/mL

Proceeding to the next compound to report its MIC.
Reported MIC, compound CCCCCOc1ccc(S(=O)(=O)NCCCCCCNC(=O)Oc2cc(O)c3c(c2)[C@@H](C(=O)O)NC(=O)[C@H]2NC(=O)[C@H](NC(=O)[C@@H]4NC(=O)[C@H](CC(N)=O)NC(=O)[C@H](NC(=O)[C@@H](CC(C)C)NC)[C@H](O)c5ccc(c(Cl)c5)Oc5cc4cc(c5O[C@@H]4O[C@H](CO)[C@@H](O)[C@H](O)[C@H]4O[C@H]4C[C@](C)(N)[C@H](O)[C@H](C)O4)Oc4ccc(cc4Cl)[C@H]2O)c2ccc(O)c-3c2)cc1 (atropisomer, axis not shown) : ____
0.01 to 0.5 µg/mL

* * *

System: Streptococcus pyogenes 712
Experiment: MIC by broth microdilution, SPY 712
Assay type: cell-based
Conditions: Streptococcus pyogenes 712; class symbols; read-out: MIC S PYO 712
MEASURED PARAMETER: MIC

MOLECULE | RESULT
CCCCCCc1ccc(S(=O)(=O)NCCCCCCNCc2c(O)cc3c(c2O)-c2cc(ccc2O)[C@H]2NC(=O)[C@@H]4NC(=O)[C@H](CC(N)=O)NC(=O)[C@H](NC(=O)[C@@H](CC(C)C)NC)[C@H](O)c5ccc(c(Cl)c5)Oc5cc4cc(c5O[C@@H]4O[C@H](CO)[C@@H](O)[C@H](O)[C@H]4O[C@H]4C[C@]5(C)NC(=O)O[C@@H]5[C@H](C)O4)Oc4ccc(cc4Cl)[C@@H](O)[C@H](NC2=O)C(=O)N[C@@H]3C(=O)O)cc1 (atropisomer, axis not shown) | 0.01 to 0.5 µg/mL

Here is the next item to consider.
If you can, please state the reported MIC value of CCCCCCc1ccc(S(=O)(=O)NCCCCCCNCc2c(O)cc3c(c2O)-c2cc(ccc2O)[C@H]2NC(=O)[C@@H]4NC(=O)[C@H](CC(N)=O)NC(=O)[C@H](NC(=O)[C@@H](CC(C)C)NC)[C@H](O)c5ccc(c(Cl)c5)Oc5cc4cc(c5O[C@@H]4O[C@H](CO)[C@@H](O)[C@H](O)[C@H]4O[C@H]4C[C@](C)(NC(=O)CN)[C@H](O)[C@H](C)O4)Oc4ccc(cc4Cl)[C@@H](O)[C@H](NC2=O)C(=O)N[C@@H]3C(=O)O)cc1 (atropisomer, axis not shown) .
0.01 to 0.5 µg/mL

* * *

System: Staphylococcus epidermidis 831 (MRSE)
Assay: MIC by broth microdilution, SE 831
Assay type: cell-based
Conditions: Staphylococcus epidermidis, MRSE, read-out: MIC SE 831
MEASURED PARAMETER: MIC

Endpoint output: MIC of CCOCCOCCNC(=O)Oc1cc(O)c2c(c1)[C@@H](C(=O)O)NC(=O)[C@H]1NC(=O)[C@H](NC(=O)[C@@H]3NC(=O)[C@H](CC(N)=O)NC(=O)[C@H](NC(=O)[C@@H](CC(C)C)NC)[C@H](O)c4ccc(c(Cl)c4)Oc4cc3cc(c4O[C@@H]3O[C@H](CO)[C@@H](O)[C@H](O)[C@H]3O[C@H]3C[C@](C)(N)[C@H](O)[C@H](C)O3)Oc3ccc(cc3Cl)[C@H]1O)c1ccc(O)c-2c1 (atropisomer, axis not shown) . Value?
4 to 8 µg/mL

* * *

Tested on: Staphylococcus epidermidis 831 (MRSE)
Test: MIC by broth microdilution, SE 831
Format: cell-based
Settings: Staphylococcus epidermidis, MRSE, read-out: MIC SE 831
MEASURED PARAMETER: MIC

Known MIC results, listed for orientation:
COMPOUND | MIC
CCCCCCc1ccc(NC(=O)NCCCCCCNC(=O)Oc2cc(O)c3c(c2)[C@@H](C(=O)O)NC(=O)[C@H]2NC(=O)[C@H](NC(=O)[C@@H]4NC(=O)[C@H](CC(N)=O)NC(=O)[C@H](NC(=O)[C@@H](CC(C)C)NC)[C@H](O)c5ccc(c(Cl)c5)Oc5cc4cc(c5O[C@@H]4O[C@H](CO)[C@@H](O)[C@H](O)[C@H]4O[C@H]4C[C@](C)(N)[C@H](O)[C@H](C)O4)Oc4ccc(cc4Cl)[C@H]2O)c2ccc(O)c-3c2)cc1 (atropisomer, axis not shown) [Compound 354] | 0.01 to 0.5 µg/mL
CNCCCCCNC(=O)Oc1cc(O)c2c(c1)[C@@H](C(=O)NC1C3CC4CC(C3)CC1C4)NC(=O)[C@H]1NC(=O)[C@H](NC(=O)[C@@H]3NC(=O)[C@H](CC(N)=O)NC(=O)[C@H](NC(=O)[C@@H](CC(C)C)NC)[C@H](O)c4ccc(c(Cl)c4)Oc4cc3cc(c4O[C@@H]3O[C@H](CO)[C@@H](O)[C@H](O)[C@H]3O[C@H]3C[C@](C)(N)[C@H](O)[C@H](C)O3)Oc3ccc(cc3Cl)[C@H]1O)c1ccc(O)c-2c1 (some centres unmarked) [Compound 336] | 0.01 to 0.5 µg/mL

Fill in the recorded MIC for this compound, with Staphylococcus epidermidis 831 (MRSE) as test system: CN[C@H](CC(C)C)C(=O)N[C@H]1C(=O)N[C@@H](CC(N)=O)C(=O)N[C@H]2C(=O)N[C@H]3C(=O)N[C@H](C(=O)N[C@H](C(=O)O)c4cc(O)cc(O)c4-c4cc3ccc4O)[C@H](O)c3ccc(c(Cl)c3)Oc3cc2cc(c3O[C@@H]2O[C@H](CO)[C@@H](O)[C@H](O)[C@H]2O[C@H]2C[C@](C)(N)[C@H](O)[C@H](C)O2)Oc2ccc(cc2Cl)[C@H]1O [Vancomycin, vancomycin, reference compound]
2 µg/mL

Next record, please: CCCOc1ccc(NC(=O)Oc2cc(O)c3c(c2)[C@@H](C(=O)O)NC(=O)[C@H]2NC(=O)[C@H](NC(=O)[C@@H]4NC(=O)[C@H](CC(N)=O)NC(=O)[C@H](NC(=O)[C@@H](CC(C)C)NC)[C@H](O)c5ccc(c(Cl)c5)Oc5cc4cc(c5O[C@@H]4O[C@H](CO)[C@@H](O)[C@H](O)[C@H]4O[C@H]4C[C@](C)(N)[C@H](O)[C@H](C)O4)Oc4ccc(cc4Cl)[C@H]2O)c2ccc(O)c-3c2)cc1 (atropisomer, axis not shown) [Compound 329]
2 to 4 µg/mL

And the next one, CCCCCCOc1ccc(S(=O)(=O)NCCCCCCNC(=O)Oc2cc(O)c3c(c2)[C@@H](C(=O)O)NC(=O)[C@H]2NC(=O)[C@H](NC(=O)[C@@H]4NC(=O)[C@H](CC(N)=O)NC(=O)[C@H](NC(=O)[C@@H](CC(C)C)NC)[C@H](O)c5ccc(c(Cl)c5)Oc5cc4cc(c5O[C@@H]4O[C@H](CO)[C@@H](O)[C@H](O)[C@H]4O[C@H]4C[C@](C)(N)[C@H](O)[C@H](C)O4)Oc4ccc(cc4Cl)[C@H]2O)c2ccc(O)c-3c2)cc1 (atropisomer, axis not shown) [Compound 349] ?
0.01 to 0.5 µg/mL

The measured values listed here are drawn from patent US20110015119A1.
